- Test system: CD8+ T cells from HIV+ subjects
- protocol: Intracellular cytotoxin staining (ICS: perforin, GrzA, GrzB, CD107a), CD8+ T cells from HIV+ subjects
- Format: cell-based, human
- protocol.conditions: five HIV+ subjects; individual 13-15mer peptides
Ends that are not written are not given here.
assay.endpoint: HIV+ subjects whose CD8+ T cells responded with one or more cytotoxins

- biosequence: "RAEQASQEVKNWMTE [Hp15-1]"
  meas.value: "five"
- biosequence: "AEVKLYLKQSLSIA [Fp14-3]"
  meas.value: "five"
- biosequence: "KLYLKQSLSIANA [Fp14-4]"
  meas.value: "five"

* * *

- Tested on: CD3+CD8+ T cells from HIV+ subjects
- protocol: CFSE-proliferation, CD3+CD8+ T cells from HIV+ subjects
- Type: cell-based, human
- protocol.conditions: small 9-13mer peptides, yr 4, responders to Fp9 or Fp14 pool via both proliferation and IFNγ
Marks after values point to notes of the source that are not given here.
assay.endpoint: CD8^+ T-cell Responder Frequency (%)

- substance: "Fp9-3e (ARMQCRAWYL)"
  assay.endpoint: "CD8^+ T-cell Responder Frequency (%)"
  meas.value: "(33) %"
- substance: "Fp9-2/3b (APARMQCRA)"
  assay.endpoint: "CD8^+ T-cell Responder Frequency (%)"
  meas.value: "(33) %"

* * *

Recorded CD8^+ T-cell Responder Frequency, one value per entry.
- Test system: CD3+CD8+ T cells from HIV+ subjects
- protocol: CFSE-proliferation, CD3+CD8+ T cells from HIV+ subjects
- Type: cell-based, human
- protocol.conditions: responders/tested; small 9-13mer peptides, yr 4, responders to Fp9 or Fp14 pool via both proliferation and IFNγ

- substance: "Fp9-2/3b (APARMQCRA)"
  CD8^+ T-cell Responder Frequency: "3/9"
- substance: "Fp14-3/4g (YLKQSLSIA)"
  CD8^+ T-cell Responder Frequency: "6/10"
- substance: "Fp9-1/2a (EARFAPARM)"
  CD8^+ T-cell Responder Frequency: "5/9"
- substance: "Fp9-3f (APARMQCRAWYL)"
  CD8^+ T-cell Responder Frequency: "4/9"
- substance: "KLYLKQSLSI [Fp14-3/4f]"
  CD8^+ T-cell Responder Frequency: "10/10"
- substance: "Fp14-2/3c (AEVKLYLKQSL)"
  CD8^+ T-cell Responder Frequency: "9/10"
- substance: "Fp14-2/3b (AEVKLYLKQ)"
  CD8^+ T-cell Responder Frequency: "3/10"
- substance: "Fp14-1/2a (NTAEVKLYL)"
  CD8^+ T-cell Responder Frequency: "4/10"
- substance: "Fp9-3e (ARMQCRAWYL)"
  CD8^+ T-cell Responder Frequency: "3/9"

* * *

- Test system: T cells from HIV− subjects
- protocol: CFSE-proliferation, CD8+ / CD4+ T cells from HIV− control subjects
- Format: cell-based, human
Ends that are not written are not given here.
assay.endpoint: T-cell proliferation in HIV− subjects (in words)

- biosequence: "ARMQCRAWY [Fp9-3d]"
  meas.value: "not"
- biosequence: "RMQCRAWYL [Fp9-3c]"
  meas.value: "not"
- biosequence: "RAEQASQEVKNWMTE [Hp15-1]"
  meas.value: "not"
